Experiment: Anodic potential of the compound at pH 6.86 by differential pulse voltammetry
Assay type: physicochemical
Square brackets hold non-standard residues; d marks the D form. Peptide text beside a SMILES is read from it. Aib = CC(C)(N)C(=O)O

# molecule, quantityUnit, Activity
records = [
    ("CC[C@H](C)[C@H](N)C(=O)N[C@H](C(=O)N[C@H](C(=O)N[C@@H](Cc1ccc(O)cc1)C(=O)N1CCC[C@H]1C(=O)N[C@@H](Cc1c[nH]c2ccccc12)C(=O)N[C@H](C(=O)N[C@@H](CCC(N)=O)C(N)=O)[C@@H](C)O)C(C)C)C(C)C", "V", 0.11),
    ("CC(C)[C@H](NC(=O)[C@@H](NC(=O)C(C)(C)N)C(C)C)C(=O)N[C@@H](Cc1ccc(O)cc1)C(=O)N1CCC[C@H]1C(=O)N[C@@H](Cc1c[nH]c2ccccc12)C(=O)N[C@H](C(=O)N[C@@H](CCC(N)=O)C(N)=O)[C@@H](C)O (H-[Aib]VVYPWTQ-NH2)", "V", 0.101),
    ("CC(C)[C@H](N)C(=O)N[C@H](C(=O)N[C@@H](Cc1ccc(O)cc1)C(=O)N1CCC[C@H]1C(=O)N[C@@H](Cc1c[nH]c2ccccc12)C(=O)N[C@H](C(=O)N[C@@H](CCCCN)C(N)=O)[C@@H](C)O)C(C)C", "V", 0.125),
    ("CC(C)[C@H](N)C(=O)N[C@H](C(=O)N[C@@H](Cc1ccc(O)cc1)C(=O)N1CCC[C@H]1C(=O)N[C@@H](Cc1c[nH]c2ccccc12)C(=O)N[C@H](C(=O)N[C@@H](CN)C(N)=O)[C@@H](C)O)C(C)C", "V", 0.15),
    ("CC(C)[C@H](N)C(=O)N[C@H](C(=O)N[C@@H](Cc1ccc(O)cc1)C(=O)N1CCC[C@H]1C(=O)N[C@@H](Cc1c[nH]c2ccccc12)C(=O)N[C@H](C(=O)N[C@@H](CCCN)C(N)=O)[C@@H](C)O)C(C)C", "V", 0.117),
    ("CC(C)[C@H](N)C(=O)N[C@H](C(=O)N[C@@H](Cc1ccc(O)cc1)C(=O)N1CCC[C@H]1C(=O)N[C@@H](Cc1c[nH]c2ccccc12)C(=O)N[C@H](C(=O)N[C@@H](CCN)C(N)=O)[C@@H](C)O)C(C)C", "V", 0.07),
]
